Source listed as ChEMBL document CHEMBL4828766.

ASSAY_SYSTEM: Melanocortin receptor 4 (Mus musculus)
Sequence (P56450 whole entry): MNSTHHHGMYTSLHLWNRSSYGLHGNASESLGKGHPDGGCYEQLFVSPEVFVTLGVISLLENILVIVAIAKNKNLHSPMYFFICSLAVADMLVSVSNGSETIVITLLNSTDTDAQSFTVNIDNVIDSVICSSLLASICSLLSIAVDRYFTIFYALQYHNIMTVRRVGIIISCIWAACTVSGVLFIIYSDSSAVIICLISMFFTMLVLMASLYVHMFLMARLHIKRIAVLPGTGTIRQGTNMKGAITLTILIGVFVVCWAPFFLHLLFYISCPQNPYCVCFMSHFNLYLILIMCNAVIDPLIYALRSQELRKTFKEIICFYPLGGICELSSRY
MEASUREMENT_PROTOCOL: Antagonist activity at mouse melanocortin receptor 4 expressed in HEK293 cells assessed as inhibition of NDP-MSH-induced cAMP accumulation incubated for 2 hrs by cAMP Alpha-screen assay based Schild analysis
Assay type: functional, cell-based
MEASUREMENT_PARAMETERS: read-out: pA2 (converted)
Square brackets hold non-standard residues; d marks the D form. Peptide text beside a SMILES is read from it. dPhe(4-I) = N[C@H](Cc1ccc(I)cc1)C(=O)O; 2Nal = N[C@@H](Cc1ccc2ccccc2c1)C(=O)O; d2Nal = N[C@H](Cc1ccc2ccccc2c1)C(=O)O
Please enter Y where Kb is greater than or equal to 200 nM, and N where it is lower.

COMPOUND: CC(=O)N[C@H](Cc1ccc2ccccc2c1)C(=O)N[C@H](Cc1ccc2ccccc2c1)C(=O)N[C@@H](Cc1ccc2ccccc2c1)C(=O)N[C@@H](CCCNC(=N)N)C(N)=O
ANSWER_LABEL: Y
--
COMPOUND: CC(=O)N[C@H](Cc1ccc(I)cc1)C(=O)N[C@H](Cc1ccc2ccccc2c1)C(=O)N[C@@H](Cc1ccc2ccccc2c1)C(=O)N[C@@H](CCCNC(=N)N)C(N)=O (Ac-[dPhe(4-I)][d2Nal][2Nal]R-NH2)
ANSWER_LABEL: Y
--
COMPOUND: CC(=O)N[C@H](Cc1ccc2ccccc2c1)C(=O)N[C@H](Cc1ccc2ccccc2c1)C(=O)N[C@H](Cc1ccc(I)cc1)C(=O)N[C@@H](CCCNC(=N)N)C(N)=O (Ac-[d2Nal][d2Nal][dPhe(4-I)]R-NH2)
ANSWER_LABEL: Y
--
COMPOUND: CC(=O)N[C@H](Cc1ccc2ccccc2c1)C(=O)N[C@H](Cc1ccc2ccccc2c1)C(=O)N[C@H](Cc1ccc2ccccc2c1)C(=O)N[C@H](CCCCN)C(N)=O (Ac-[d2Nal][d2Nal][d2Nal][dK]-NH2)
ANSWER_LABEL: Y
--
COMPOUND: CC(=O)N[C@H](Cc1ccc(I)cc1)C(=O)N[C@@H](CCCNC(=N)N)C(=O)N[C@H](Cc1ccc(I)cc1)C(=O)N[C@H](Cc1ccc2ccccc2c1)C(N)=O (Ac-[dPhe(4-I)]R[dPhe(4-I)][d2Nal]-NH2)
ANSWER_LABEL: Y
--
COMPOUND: CC(=O)N[C@H](Cc1ccc(I)cc1)C(=O)N[C@@H](CCCNC(=N)N)C(=O)N[C@H](Cc1ccc(I)cc1)C(=O)N[C@@H](CCCNC(=N)N)C(N)=O (Ac-[dPhe(4-I)]R[dPhe(4-I)]R-NH2)
ANSWER_LABEL: N
--
COMPOUND: CC(=O)N[C@H](Cc1ccc(I)cc1)C(=O)N[C@@H](CCCNC(=N)N)C(=O)N[C@@H](Cc1c[nH]c2ccccc12)C(=O)N[C@@H](CCCNC(=N)N)C(N)=O (Ac-[dPhe(4-I)]RWR-NH2)
ANSWER_LABEL: N
